The reported numbers originate from patent US9561231B2.

# target-entity: first (BD1: amino acids K57-E168) bromodomain of BRD4 (Homo sapiens, UniProt O60885)
# Construct: His-tagged first (BD1: amino acids K57-E168)
# assay-protocol: TR-FRET bromodomain binding assay, BRD4 BD1
# experimental-context: TR-FRET assay protocol (A-G, compound concentration range); Ki calculated from IC50, probe Kd and probe concentration; read-out: TR-FRET Binding Ki: BRD4 (BDI_K57-E168)
measure-name: log10 Ki (log10 of the value in nM)
Please keep in mind that the values are log10 of Ki expressed in nM.

COCc1ccc(-c2cc(=O)n(C)nc2-c2ccccc2Oc2ccccc2)cc1 [Example 78]    2.64
Cn1nc(-c2ccccc2Oc2ccccc2)c(-c2ccc(N3CCOCC3)nc2)cc1=O [Example 179]    2.97
Cn1cc(-c2cc(NS(=O)(=O)c3c[nH]cn3)ccc2Oc2ccccc2)ccc1=O [Example 228]    2.15
CCS(=O)(=O)Nc1ccc(Oc2ccc(C(N)=O)cc2)c(-c2cn(C)c(=O)cc2OCC(F)(F)F)c1 [Example 294]    1.44

// moving on: another record for log10 Ki
# input Would you mind telling me what log10 Ki value was observed for Cn1nc(-c2cc(N)ccc2Oc2ccccc2)ccc1=O [Example 10] ?
# output 3.39

----------
# target-entity: first (BD1: amino acids K57-E168) bromodomain of BRD4 (Homo sapiens)
# Construct: His-tagged first (BD1: amino acids K57-E168)
# assay-protocol: TR-FRET bromodomain binding assay, BRD4 BD1
# experimental-context: TR-FRET assay protocol (A-G, compound concentration range); Ki calculated from IC50, probe Kd and probe concentration; read-out: TR-FRET Binding Ki: BRD4 (BDI_K57-E168)
measure-name: Ki

Here's what some known entries look like.
CCS(=O)(=O)Nc1ccc(Oc2ccc(OC3CCN(C(=O)OC(C)(C)C)CC3)cc2F)c(-c2cn(C)c(=O)cc2OC2CCN(C(=O)OC(C)(C)C)CC2)c1    > 2.38 µM
COc1cc(-c2cc(=O)n(C)nc2-c2ccccc2Oc2ccccc2)ccc1F    > 13 µM

// moving on: another record for Ki
# input Would you mind telling me what Ki value was observed for `CCNC(=O)Nc1ccc(Oc2ccccc2)c(-c2nn(C)c(=O)cc2OC)c1` ?
# output > 2.38 µM

----------
# target-entity: second (BD2: amino acids E352-E168) bromodomain of BRD4 (Homo sapiens)
# Construct: protocol
# assay-protocol: TR-FRET bromodomain binding assay, BRD4 BD2
# experimental-context: TR-FRET assay protocol (A-G, compound concentration range); Ki calculated from IC50, probe Kd and probe concentration; read-out: TR-FRET Binding Ki: BRD4 (BDII_E352-M457)
# Method: A time-resolved fluorescence resonance energy transfer (TR-FRET) assay was used to determine the affinities of compounds of the Examples listed in Table 1 for each bromodomain of BRD4. […] TR-FRET data were normalized to the means of 24 no-compound controls (“high”) and 8 controls containing 1 μM un-labeled probe (“low”). […] Inhibition constants (Ki) were calculated from the IC50s, probe Kd and probe concentration. […]
measure-name: pKi
Please report pKi as the negative decimal logarithm of the molar concentration, giving only the number.

Here's what some known entries look like.
COC(=O)Cc1ccc(-c2cc(=O)n(C)nc2-c2ccccc2Oc2ccccc2)cc1    5.83
Cn1cc(-c2cc(NS(C)(=O)=O)ccc2Oc2ccc(F)cc2F)c(C(F)(F)F)cc1=O    6.16
Cn1nc(-c2ccccc2Oc2ccccc2)c(C2=CCN(C(=O)OC(C)(C)C)CC2)cc1=O    6.13
Cn1cc(-c2cc(NS(C)(=O)=O)ccc2OC2CCOC2)ccc1=O (stereo not drawn)    6.15
CC(C)Cn1cc(-c2cc(=O)n(C)nc2-c2ccccc2Oc2ccccc2)cn1    6.17

// moving on: another record for pKi
# input Would you mind telling me what pKi value was observed for `CCO/C=C/c1cc(=O)n(C)cc1-c1cc(S(C)(=O)=O)ccc1NCC1CC1` ?
# output 5.95
